Values were extracted from the supplement of paper PMC9170038.

Collected apparent KD of K4 kissing-loop reporter values appear next to each entry.
test system: K4 kissing-loop RNA reporter; test: apparent KD of K4 kissing-loop reporter; higher = weaker reporter binding; conditions: Eterna round: R107; input ligand: tryptophan 2.4 mM;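 note: bound reporter read as fluorescence of individual clusters on recovered sequencing chips by microscopy, with normalized cluster intensities fitted with a binding model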
readout.kind: apparent KD of K4 kissing-loop reporter (nM)

INSERT INTO assay_data (chain, units_symbol, reported_measurement) VALUES
  ('AGUGGACAUGUCUAGAGUGAUGUUCUGGAUACCAGACACGAAAGUGUCCCUUGGCAGCCGGAGUGAUGUUCUGGAGUUCACUAAA [Omei KL Theo A Exc B v8]', 'nM', 436),
  ('CAUAGGAAACUAUGUAUCUCUCCGACUGAAGGAGCGCGUGAAAACGCAGGUAGGUCGCAGAAUUUAACGGAGAGUGAUGUUCUCU [Ex Arginine A K4 10]', 'nM', 344),
  ('CUCGAGUGAUGUUCGUUUAUUUAUACAGAUACCAGUGAAUUUUAACACCCUUGGCAGCUGGUUGUAUCUUUGUUUUUUACACAAG [JR_Nu_ExcTheophyA_Sub024]', 'nM', 154),
  ('UGAGGAGAAUAUGAUACCAGCAGAGAGAGAGAGGAAGUAUAGUGAUGUUAUAUGAGAGAAUGCCCUUGGCAGCAUAAGAAGAAGG [SSTheophylB.B]', 'nM', 125),
  ('UGUCAUUGGUCUGAUACCAGCUGAUCGGAAACGAUCUUGCUGGAGUGAUGUUCCAAGUAAAGCCCUUGGCAGCAGACCGAUGACU [TheoBS 9 #SwitchBubble #StaticStem]', 'nM', 144),
  ('AGGCGACGCAAAGGAUAUCACGGUUUUCUAGUGAUGUUAGUCAAGACCGACCGAGAAAUCAGUGUUUGAGAAGGUUGAACGUCGC [theeternabot_sameState_KL_FMN_B_46]', 'nM', 970),
  ('UGACUUGCCUGAGGAUAUCUAGGAUAUCCAUAAAAGAAAAUAAUAAUCCAGUGAUGUUGGAGAAGGAGAGAAGGCAGGUAAGUCU [KL-XFMN-B17 #DoubleAptamer #SwitchBubble]', 'nM', 119),
  ('UGUCAUUGGUCGGCCGCCACUAGAAGGUCAAAGACCAAAGAGUGAUGUUCUUAGACGAAAGUCACUAGGACCGGGACCGAUGACU [TrypBS 7 #SwitchBubble #K4Middle]', 'nM', 200),
  ('AAAUAAAGCAGUCAUCCAGUGAUGUUGGAAGGAGCGUGCGAAAGCACAGGUAGGUCGCCAAAACCUAAUAAUGGCUGCUAAAUAA [#SwitchBubble 2 #K4Early]', 'nM', 141),
  ('CGCAAGCAGCCAGUGAUGUUGGCCGCCUUGCGAGGACCGGUACGGCCGCCACUCGAAGGCGGCUACUGGUAAACCGUCUAACGGA [Oronorenma]', 'nM', 90.1),
  ('UAAGUGAUUCACAAGCUAGAGUUACUCGAAGGAGCGACGAAUUCGUCAGGUAGGUCGCGAGUGAUGUUCGCAUGCUCUAGCAAAU [AK1 Exc Arginine A]', 'nM', 650);

* * *

system: MS2 coat protein; test: apparent KD of MS2 coat protein; designed switch direction (-1 OFF switch, 1 ON switch): -1; higher = weaker reporter binding; details: input ligand: none
readout.kind: apparent KD of MS2 coat protein (nM)

INSERT INTO results (chain, target_entity, readout_kind, reported_measurement) VALUES
  ('UGUGUGUUUGUGAGGAUAUUGUGUGUGAAAGCGCGCGAGAAGGCACAUGAGGAUCACCCAUGUAAGGGCGCGCG [-26, -24 kcal, A 23%, 6bis-6] (Eterna round: R97, puzzle: Brourd''s mod of Exclusion 4)', 'MS2 coat protein', 'apparent KD of MS2 coat protein', 23),
  ('AAGAAGAAGUAAGGAUAUGAAGAUUUGGUGAUAACAUGAGGAUCACCCAUGUGAAAACAAUAAAAUCAGAAGGUAUAAGAAGAA [AK ExNG2-2] (Eterna round: R96, puzzle: Exclusion NG 2)', 'MS2 coat protein', 'apparent KD of MS2 coat protein', 58);

* * *

system: MS2 coat protein; assay: apparent KD of MS2 coat protein; designed switch direction (-1 OFF switch, 1 ON switch): -1; higher = weaker reporter binding; conditions: Eterna round: R95; input ligand: none
readout.kind: apparent KD of MS2 coat protein (nM)

INSERT INTO results (chain, reported_measurement) VALUES
  ('UUUAAAACAUAGGAUAUCGAAAUUAUCAUUUAACGAGAAGGAUGAACAUGAGGAUCACCCAUGUGGUAUCAUGG [Mat - Exclusion 6 - JL Mod - D17] (puzzle: Exclusion 6)', 123),
  ('UGCUAGUCAGGAUAUACGAACAUGUCAAAAGACGUGAAGGGACAUGAGGAUCACCCAUGUAGAAGGGACUAGCA [salish99_ex2_r3_005] (puzzle: Exclusion 2)', 23.9),
  ('CUAGAUCUUCGGAUCUAGUACAUGAGGAUCACCCAUGUGACGAGUUGAUCCUCAUACAAGCUUUUUGCUCGUCUUAU [Sensor v3 - Turn-off variant 1 - 16] (puzzle: Sensor v3, turn-off variant 1)', 11.9);

* * *

test system: MS2 coat protein; assay: apparent KD of MS2 coat protein; designed switch direction (-1 OFF switch, 1 ON switch): 1; higher = weaker reporter binding; conditions: input ligand: FMN 200 uM
Lab note: anything with apparent KD of MS2 coat protein at or over 0.02 µM counts as true; the rest go in false.

INSERT INTO results (chain, answer_label) VALUES
  ('GGUAUGGACACAGGAUAUGCUUACGAAACGUAAGCAGAAGGGUGAACAUGAGGAUCACCCAUGUACGUGCCAGGGCGUGAGCCC [JL SSNG1 1.77] (Eterna round: R96, puzzle: Same State NG 1)', 'true'),
  ('AUUUUUAAUGCAGGAUAUGAUUAACAUGAGGAUCACCCAUGUGGUGUUGUGAGUAAGGAGAGUGAUCAGAAGGGCAUUUUUUAU [JMF''s solution 86] (Eterna round: R96, puzzle: Same State NG 2)', 'true'),
  ('GUGGUCUGACAUGAGGAUCACCCAUGUGGAAUAAAUACGGGUCAGGAUAUCUUGAGGAUCACCCAAGAGAAGGGACGGAUUGUU (Eterna round: R96, puzzle: Same State NG 3)', 'true'),
  ('ACCCGCAGCCGUCAGGAUAUGUUCGCGUCAACAUGAGGAUCACCCAUGUGUGACAAGAAGUACACGCAGAAGGGAUCAAUGCGGG [Bienri] (Eterna round: R96, puzzle: Same State 2)', 'false'),
  ('GGAAACUUGAGAGGAUAUGUAGAGGAUCACCCUACAGAAGGCUCAAAAGAGAGGAUAUGUAGAGGAUCACCCUACAGAAGGCUC [pwkr ssNG DX.11] (Eterna round: R96, puzzle: Same State NG 1)', 'true');

* * *

system: MS2 coat protein; test: apparent KD of MS2 coat protein; designed switch direction (-1 OFF switch, 1 ON switch): 1; higher = weaker reporter binding; conditions: Eterna round: R95; input ligand: none
The following ranges of apparent KD of MS2 coat protein define the classes used here: one: < 0.08 µM; two: ≥ 0.08 µM and < 0.2 µM; three: ≥ 0.2 µM

INSERT INTO measurements (chain, answer_label) VALUES
  ('ACAAGCUUUUCUGCAUCGAAAGGUUGAUAACAUGAGGAUCACCCAUGUAAAUAUGAAAACGAUGCUCCUCGUCUUAU [JR_SHM208A_Sub095] (puzzle: Sensor for hsa-mir-208a)', 'one'),
  ('UAGAAACAUGAGGAUCACCCAUGUGUCAAAGACAUAGGAUAUCACAACUGGCGCCAGUCGUGAGAAGGGUGGUAAA [Usonesat] (puzzle: Same State 1)', 'two'),
  ('GGAGUCGGCACUGAGGAUAUUCAUAUUUAAACAUGAGGAUCACCCAUGUAGGCCAGAAGGCCUUGGGAGAAGGCAGGUCGGCUCG [salish99_ss2_r3_084] (puzzle: Same State 2)', 'three'),
  ('AAGAAACAUGAGGAUCACCCAUGUCGAAAUAACACAGGAUAUCGCACGACUACGGUGCGGCGAGAAGGGUGAGGAA [Estere] (puzzle: Same State 1)', 'two'),
  ('AAUUAUUCACAUGAGGAUCACCCAUGUGAUAUUAUUAUUACAAGCUUUUUGCUCGUCUUGUUCCUCAGUGAAUAAUU [Default title] (puzzle: Sensor for hsa-mir-208a version 2)', 'one'),
  ('GGAGCCGGCACUGAGGAUAUUCAUAGUGUAACAUGAGGAUCACCCAUGUAGGCCCUGAGGCCUUGGGAGAAGGCAGGUCGGCUCG [JL-ss2-3.04 ViennaUCT mod] (puzzle: Same State 2)', 'three'),
  ('UUAUAACAUGAGGAUCACCCAUGUCAACAAAGUCGAGGAUAUGGGCAUAGAUUAUAAGAACCAGAAGGCGAAUAUU [Mat - Same State 1 - Mod of UCT - D40] (puzzle: Same State 1)', 'two'),
  ('UUGGUGUAGAUACAGGAUAUGUUGCUCGUAACAUGAGGAUCACCCAUGUAUCUAUGAGAUUAAAUGCAGAAGGGUGCACAUCACU [salish99_ss2_r3_088] (puzzle: Same State 2)', 'three'),
  ('GGAGCCGGCACCGAGGAUAUUCAUAUUAAAACAUGAGGAUCACCCAUGUAGGCCAGAAGGCCUUGGGAGAAGGCGGACCGGCUCG [Xeonanis - 4] (puzzle: Same State 2)', 'three'),
  ('GAGGAUGAUUUACAGGAUAUAUAGGAGAUGACAUGAGGAUCACCCAUGUAAGAGAGAGGAGGGAGAUAGAAGGGUAAGGGAUGUG [JR_SS2_Sub42] (puzzle: Same State 2)', 'one');
